assay-overview: Pharmacokinetic experiment on mice (iv and ig)
Type: in vivo
run-conditions: mouse, plasma, po; BALB/c Mice, ig, 3.00 mg/kg; read-out: Peak plasma concentration Cmax
measure-name: Cmax (ng/mL)

[[record]]
molecule = "Cc1nn(C2CCC(=O)NC2=O)c2cccc(N3CCN(C[C@H]4CC[C@H](n5cc6cc(NC(=O)c7cnn8cccnc78)c(N7CCOCC7)cc6n5)CC4)CC3)c12 (stereo partly shown) [TM-33]"
value_units = "ng/mL"
measured_result = 12400


---

Below, each entry is listed alongside its reported half-life at 1 µM.
assay-overview: Metabolic stability in mouse liver microsome
run-conditions: liver microsomes
measure-name: half-life at 1 µM (min)

[[record]]
compound = "Cc1nn(C2CCC(=O)NC2=O)c2cccc(N3CCN(C[C@H]4CC[C@H](n5cc6cc(NC(=O)c7cnn8cccnc78)c(N7CCOCC7)cc6n5)CC4)CC3)c12 (stereo partly drawn) [TM-33]"
measured_result = 46.9

[[record]]
compound = "Cc1nn(C2CCC(=O)NC2=O)c2cccc(OC3CCN(C[C@H]4CC[C@H](n5cc6cc(NC(=O)c7cnn8cccnc78)c(N7CCOCC7)cc6n5)CC4)CC3)c12 (stereo partly drawn) [TM-56]"
measured_result = 70.1

[[record]]
compound = "Cn1c(=O)n(C2CCC(=O)NC2=O)c2cccc(C#CCOC3CCN(C[C@H]4CC[C@H](n5cc(NC(=O)c6cnn7ccc(N8C[C@H]9C[C@@H]8CO9)nc67)c(C(F)F)n5)CC4)CC3)c21 (stereo partly drawn) [Positive compound, reference compound]"
measured_result = 29.4


---

assay-overview: Pharmacokinetic experiment on mice (iv and ig)
Type: in vivo
run-conditions: mouse, plasma, po; ICR Mice, ig, 5.00 mg/kg; read-out: Peak plasma concentration Cmax
measure-name: Cmax (µg/mL)

[[record]]
compound = "Cc1nn(C2CCC(=O)NC2=O)c2cccc(OC3CCN(C[C@H]4CC[C@H](n5cc6cc(NC(=O)c7cnn8cccnc78)c(N7CCOCC7)cc6n5)CC4)CC3)c12 (stereo partly shown)"
measured_result = 0.22


---

assay-overview: Pharmacokinetic experiment on mice (iv and ig)
Type: in vivo
run-conditions: mouse, plasma, po; BALB/c Mice, ig, 5.00 mg/kg; read-out: Peak plasma concentration Cmax
Below, each entry is listed alongside its reported Cmax.
measure-name: Cmax (ng/mL)

[[record]]
compound = "Cc1nn(C2CCC(=O)NC2=O)c2cncc(N3CCN(C[C@H]4CC[C@H](n5cc6cc(NC(=O)c7cnn8cccnc78)c(N7CCO[C@H](C)C7)cc6n5)CC4)CC3)c12 (stereo partly drawn) [TM-109]"
measured_result = 1300

[[record]]
compound = "Cc1nn(C2CCC(=O)NC2=O)c2cccc(N3CC4CN(C[C@H]5CC[C@H](n6cc7cc(NC(=O)c8cnn9cccnc89)c(N8CCOCC8)cc7n6)CC5)CC4C3)c12 (stereo partly drawn) [TM-57]"
measured_result = 342

[[record]]
compound = "Cc1nn(C2CCC(=O)NC2=O)c2cccc(N3CCC4(CC3)CN(C[C@H]3CC[C@H](n5cc6cc(NC(=O)c7cnn8cccnc78)c(N(C)C)cc6n5)CC3)C4)c12 (stereo partly drawn) [TM-101]"
measured_result = 356


---

assay-overview: Pharmacokinetic experiment on SD rats (iv and ig)
Format: in vivo
run-conditions: Sprague-Dawley, rat, plasma, iv, 1.00 mg/kg
Below, each entry is listed alongside its reported AUC(0-inf).
measure-name: AUC(0-inf)

[[record]]
compound = "Cc1nn(C2CCC(=O)NC2=O)c2cccc(OC3CCN(C[C@H]4CC[C@H](n5cc6cc(NC(=O)c7cnn8cccnc78)c(N7CCOCC7)cc6n5)CC4)CC3)c12 (some centres unmarked) [TM-56]"
measured_result = "1980 ng·h/mL"

[[record]]
compound = "Cc1nn(C2CCC(=O)NC2=O)c2cncc(N3CCN(C[C@H]4CC[C@H](n5cc6cc(NC(=O)c7cnn8cccnc78)c(N7CCO[C@H](C)C7)cc6n5)CC4)CC3)c12 (some centres unmarked) [TM-109]"
measured_result = "776 ng·h/mL"

[[record]]
compound = "Cc1nn(C2CCC(=O)NC2=O)c2cccc(N3CC4CN(C[C@H]5CC[C@H](n6cc7cc(NC(=O)c8cnn9cccnc89)c(N8CCOCC8)cc7n6)CC5)CC4C3)c12 (some centres unmarked) [TM-57]"
measured_result = "526 ng·h/mL"

[[record]]
compound = "Cc1nn(C2CCC(=O)NC2=O)c2cccc(N3CCC4(CC3)CN(C[C@H]3CC[C@H](n5cc6cc(NC(=O)c7cnn8cccnc78)c(N(C)C)cc6n5)CC3)C4)c12 (some centres unmarked) [TM-101]"
measured_result = "674 ng·h/mL"

[[record]]
compound = "Cc1nn(C2CCC(=O)NC2=O)c2cccc(N3CCN(C[C@H]4CC[C@H](n5cc6cc(NC(=O)c7cnn8cccnc78)c(N7CCOCC7)cc6n5)CC4)CC3)c12 (some centres unmarked) [TM-33]"
measured_result = "2300 ng·h/mL"

